Every entry's value here was drawn from a melting point compilation (Tetko et al.).

melting point: recorded values
test.settings: a range is the spread between reports

Example cases with answers are listed next.
Nc1ccc2c(c1)Cc1ccccc1-2 = 128 to 129 °C
CCc1cc(C)cc(C)c1 = -84.3 to -84 °C
CCCCCCCCCCCCC(=O)O = 41.5 to 44.5 °C
Cc1ccc(C)c(O)c1 = 74 to 76 °C
Brc1ccc(Br)c(Br)c1 = 42 to 44.5 °C
C=C1CCC2CC1C2(C)C (configuration not stated) = -61.5 to -61 °C
BrC(Br)Br = 8 to 9 °C
CCOC(=O)CCC(=O)OCC = -21 to -20 °C
Nc1cccc2cccc(N)c12 = 63 to 66.5 °C
CCCCCC(C)C = -109 to -105 °C

Measured melting point, CCC(C)(C)C(C)(C)C : -10 to -9.8 °C

Measured melting point, CC(=O)c1cccc(C#N)c1 : 98 to 99 °C

Measured melting point, CC(C)OC(=O)C=CC(=O)OC(C)C : 2 to 2.1 °C

====

test.settings: a range is the spread between reports
measured.metric: melting point

COc1ccc(C(=O)c2ccccc2)c(O)c1 = 64 to 65.5 °C

Measured melting point, Cc1ncc([N+](=O)[O-])n1CCO : 159 to 160 °C

Measured melting point, CC(=O)N[C@@H](Cc1ccc(O)cc1)C(=O)O : 149 to 153 °C

Measured melting point, O=C(Cl)c1ccc2ccccc2c1 : 50 to 51 °C

Measured melting point, O=C(O)c1cccc(Cl)c1 : 156 to 158 °C

Measured melting point, O=C1C(=O)c2cccc3cccc1c23 : 258 to 261 °C

Measured melting point, O=C(O)c1ccc2ccccc2n1 : 156 to 158 °C

Measured melting point, OCc1ccc(Br)cc1 : 76 to 78 °C

Measured melting point, NC(N)=NC(=O)c1nc(Cl)c(N)nc1N : 240 to 241 °C

Measured melting point, O=C(OC(=O)C(F)(F)F)C(F)(F)F : -65 to -63 °C

Measured melting point, COc1ccc(C(=O)c2ccc(OC)cc2O)c(O)c1 : 135 to 140 °C

Measured melting point, Cc1ccc(CC(=O)O)cc1 : 92 to 93 °C

Measured melting point, CCCCCCCCCCCCCC=O : 20.5 to 24 °C

Measured melting point, N#CCc1ccc(N)cc1 : 44 to 46 °C

Measured melting point, O=S(=O)(Cl)Cl : -54.1 to -54 °C

Measured melting point, O=C(O)c1ccccn1 : 136 to 137 °C

Measured melting point, O=C(O)Cc1c(Cl)ccc(Cl)c1Cl : 156 to 161 °C

Measured melting point, O=C1c2ccccc2-c2ccccc21 : 83 to 84 °C

Measured melting point, CCC(CC)C(C)(C)C : -99.3 to -99 °C

Measured melting point, Cc1c(Cl)cccc1[N+](=O)[O-] : 36 to 37.8 °C

====

melting point: recorded values
test.settings: a range is the spread between reports

Example cases with answers are listed next.
Cc1cccc(C#N)c1 = -27 to -23 °C
COc1cccc(OC)c1C(C)=O = 69 to 70 °C
CC(C)CCC(=O)O = -35 to -33 °C
CC(c1ccccc1)c1ccccc1 = -18 to -17.9 °C
CC(C)CC(N)=O = 136 to 137 °C
CCc1cc(C)ccc1C = -54 to -53.7 °C
Fc1cccc2ccccc12 = -13 to -9 °C
CCC(Br)CBr (configuration not stated) = -65.4 to -65 °C
CCCCCCCCCCCCCCCCCCCCC = 39 to 41 °C
CCC#N = -93 to -92 °C

Here is another molecule to look at.
Measured melting point, O=c1c2ccccc2oc2ccccc12 : 175 to 176 °C
